Reported Fold Increase values follow for various binders
molecular target: T1, human TrkA receptor on the cell surface (human, UniProt P04629 33-796); test: flow cytometry on TF-1 cells, 4 µg/ml
T1 construct: whole, on cells; PC12-hTrkA: high density; also called hTrkA; huTrkA
T1 sequence (P04629 33-796): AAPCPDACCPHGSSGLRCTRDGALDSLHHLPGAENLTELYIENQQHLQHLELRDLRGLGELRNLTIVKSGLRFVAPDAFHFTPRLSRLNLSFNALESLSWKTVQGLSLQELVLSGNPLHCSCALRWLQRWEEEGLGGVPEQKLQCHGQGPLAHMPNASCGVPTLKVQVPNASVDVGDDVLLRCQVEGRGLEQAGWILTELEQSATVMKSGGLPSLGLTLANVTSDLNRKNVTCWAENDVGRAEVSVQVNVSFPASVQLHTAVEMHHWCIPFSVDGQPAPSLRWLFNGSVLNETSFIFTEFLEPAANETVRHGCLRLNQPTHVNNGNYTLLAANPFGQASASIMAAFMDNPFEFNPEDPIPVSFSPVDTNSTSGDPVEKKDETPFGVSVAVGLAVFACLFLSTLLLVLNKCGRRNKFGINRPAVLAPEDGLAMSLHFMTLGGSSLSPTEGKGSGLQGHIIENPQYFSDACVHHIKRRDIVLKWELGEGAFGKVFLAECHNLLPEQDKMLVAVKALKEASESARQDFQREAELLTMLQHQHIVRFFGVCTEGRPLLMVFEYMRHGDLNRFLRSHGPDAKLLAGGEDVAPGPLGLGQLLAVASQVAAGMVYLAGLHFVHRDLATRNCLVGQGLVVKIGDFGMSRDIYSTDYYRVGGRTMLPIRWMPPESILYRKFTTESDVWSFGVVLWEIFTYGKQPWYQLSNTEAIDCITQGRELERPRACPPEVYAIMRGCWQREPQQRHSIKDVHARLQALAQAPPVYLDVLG
Expressed in fold, but write only the number.

binder	result-units	Fold Increase
BXhVH2VL7 (antibody, human IgG1, V domains shown, Human IgG1 constant regions (IgG1 expression vectors); COS-7 supernatant; also called hVH2/hVL7) VH: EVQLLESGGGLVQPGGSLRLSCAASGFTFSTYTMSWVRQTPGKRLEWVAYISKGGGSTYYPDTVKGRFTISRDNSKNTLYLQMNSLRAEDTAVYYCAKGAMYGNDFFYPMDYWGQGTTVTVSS VL: QIVLTQSPATLSLSPGERATLSCSASSSVSYMHWYQQKPGQSPRLLIYTTSNLASGIPSRFSGSGSGTFYTLTISSLEPEDAADYYCHQWSSYPWTFGGGTKLEIK	fold	1.9
BXhVH2VL3 (antibody, human IgG1, V domains shown, Human IgG1 constant regions (IgG1 expression vectors); COS-7 supernatant; also called hVH2/hVL3) VH: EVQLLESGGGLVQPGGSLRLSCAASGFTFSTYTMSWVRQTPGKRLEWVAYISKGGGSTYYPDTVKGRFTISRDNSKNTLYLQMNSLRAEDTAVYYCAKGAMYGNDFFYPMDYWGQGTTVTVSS VL: QIVLTQSPATLSLSPGERATLSCSASSSVSYMHWYQQKPGQSPRLLIYTTSNLASGIPSRFSGSGSGTFYTLTISSLEPEDFAVYYCHQWSSYPWTFGGGTKLEIK	fold	3.1
BXhVH5VL4 (antibody, human IgG1, V domains shown, Human IgG1 constant regions (IgG1 expression vectors); COS-7 supernatant; also called hVH5/hVL4) VH: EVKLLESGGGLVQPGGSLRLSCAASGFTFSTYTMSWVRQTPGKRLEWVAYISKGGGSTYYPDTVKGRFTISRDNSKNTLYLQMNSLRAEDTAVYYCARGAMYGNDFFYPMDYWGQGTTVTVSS VL: QIVLTQSPATLSLSPGERATLSCSASSSVSYMHWYQQKPGQSPRLLIYTTSNLASGIPSRFSGSGSGTDFTLTISSLEPEDAADYYCHQWSSYPWTFGGGTKLEIK	fold	2.6

Task item: Reported Fold Increase for BXhVH3VL5 (antibody, human IgG1, V domains shown, Human IgG1 constant regions (IgG1 expression vectors); COS-7 supernatant; also called hVH3/hVL5) VH: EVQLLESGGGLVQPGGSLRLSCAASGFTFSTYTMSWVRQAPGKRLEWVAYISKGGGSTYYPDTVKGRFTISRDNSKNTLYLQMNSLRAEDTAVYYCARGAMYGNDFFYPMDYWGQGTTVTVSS VL: QIVLTQSPATLSLSPGERATLSCSASSSVSYMHWYQQKPGQSPRLLIYTTSNLASGIPSRFSGSGSGTDYTLTISSLEPEDAADYYCHQWSSYPWTFGQGTKLEIK : what is it?
Reply: 2

Task item: Which Fold Increase value is on record for BXhVH1VL4 (antibody, human IgG1, V domains shown, Human IgG1 constant regions (IgG1 expression vectors); COS-7 supernatant; also called hVH1/hVL4) VH: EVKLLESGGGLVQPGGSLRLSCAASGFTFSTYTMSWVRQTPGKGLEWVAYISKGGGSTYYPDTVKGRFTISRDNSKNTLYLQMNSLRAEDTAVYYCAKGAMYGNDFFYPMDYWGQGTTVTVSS VL: QIVLTQSPATLSLSPGERATLSCSASSSVSYMHWYQQKPGQSPRLLIYTTSNLASGIPSRFSGSGSGTDFTLTISSLEPEDAADYYCHQWSSYPWTFGGGTKLEIK ?
Reply: 1.5

Measured values drawn from patent US20110145941A1 for this set.
